Source of measurements: patent US20230113501A1

experiment: Animal health: body weight and tolerability in the OCI-AML3 xenograft study
Assay type: in vivo, CB17 NOD.SCID mice
assay-conditions: Day 11; the values are: relative body weight (ratio to day 0)
Source text: CB17 NOD.SCID mice (female, 5 weeks old) were procured through Envigo (Strain NOD.CB17-Prkdc*scidNCrHsd). Mice were fed Teklad irradiated (sterilized) mouse diet and bedded with Teklad irradiated (sterilized) corncob bedding from Envigo (Indianapolis, Ind.). […] Tumor volumes were monitored, and, when mean tumor volume reached ˜200 mm^3, mice were stratified and placed into (4) treatment groups of (10) mice as outlined in Table 1. […]
# Relative body weight (ratio to day 0) values compiled below

>  <item-smiles>
CN1CCN(c2ccc(OC(F)(F)F)c(Nc3ncc4c(n3)-c3c(c(C(N)=O)nn3CCO)CC4)c2)CC1

>  <Relative body weight (ratio to day 0)>
1.1

$$$$
>  <item-smiles>
CC1(C)CCC(CN2CCN(c3ccc(C(=O)NS(=O)(=O)c4ccc(NCC5CCOCC5)c([N+](=O)[O-])c4)c(Oc4cnc5[nH]ccc5c4)c3)CC2)=C(c2ccc(Cl)cc2)C1

>  <Relative body weight (ratio to day 0)>
1.09

$$$$

====

Reported values of Relative body weight (ratio to day 0) for individual entries
experiment: Animal health: body weight and tolerability in the OCI-AML3 xenograft study
Format: in vivo, CB17 NOD.SCID mice
assay-conditions: Day 7; the values are: relative body weight (ratio to day 0)
Description: CB17 NOD.SCID mice (female, 5 weeks old) were procured through Envigo (Strain NOD.CB17-Prkdc*scidNCrHsd). Mice were fed Teklad irradiated (sterilized) mouse diet and bedded with Teklad irradiated (sterilized) corncob bedding from Envigo (Indianapolis, Ind.). […] Tumor volumes were monitored, and, when mean tumor volume reached ˜200 mm^3, mice were stratified and placed into (4) treatment groups of (10) mice as outlined in Table 1. […]
measurement-type: Relative body weight (ratio to day 0)

>  <compound>
CN1CCN(c2ccc(OC(F)(F)F)c(Nc3ncc4c(n3)-c3c(c(C(N)=O)nn3CCO)CC4)c2)CC1 [Onvansertib]

>  <measurement-type>
Relative body weight (ratio to day 0)

>  <reported-value>
1.07

$$$$
>  <compound>
CC1(C)CCC(CN2CCN(c3ccc(C(=O)NS(=O)(=O)c4ccc(NCC5CCOCC5)c([N+](=O)[O-])c4)c(Oc4cnc5[nH]ccc5c4)c3)CC2)=C(c2ccc(Cl)cc2)C1 [Venetoclax]

>  <measurement-type>
Relative body weight (ratio to day 0)

>  <reported-value>
1.07

$$$$

====

As shown below, each of these molecules has a reported Relative body weight (ratio to day 0) value.
experiment: Animal health: body weight and tolerability in the OCI-AML3 xenograft study
Assay type: in vivo, CB17 NOD.SCID mice
assay-conditions: Day 14; the values are: relative body weight (ratio to day 0)

>  <item-smiles>
CC1(C)CCC(CN2CCN(c3ccc(C(=O)NS(=O)(=O)c4ccc(NCC5CCOCC5)c([N+](=O)[O-])c4)c(Oc4cnc5[nH]ccc5c4)c3)CC2)=C(c2ccc(Cl)cc2)C1

>  <Relative body weight (ratio to day 0)>
1.12

$$$$
>  <item-smiles>
CN1CCN(c2ccc(OC(F)(F)F)c(Nc3ncc4c(n3)-c3c(c(C(N)=O)nn3CCO)CC4)c2)CC1

>  <Relative body weight (ratio to day 0)>
1.13

$$$$
